Target: T1, Plasma antichymotrypsin (ACT) (UniProt P01011 24-423)
T1 construct: also called plasma ACT
T1 sequence (looked up): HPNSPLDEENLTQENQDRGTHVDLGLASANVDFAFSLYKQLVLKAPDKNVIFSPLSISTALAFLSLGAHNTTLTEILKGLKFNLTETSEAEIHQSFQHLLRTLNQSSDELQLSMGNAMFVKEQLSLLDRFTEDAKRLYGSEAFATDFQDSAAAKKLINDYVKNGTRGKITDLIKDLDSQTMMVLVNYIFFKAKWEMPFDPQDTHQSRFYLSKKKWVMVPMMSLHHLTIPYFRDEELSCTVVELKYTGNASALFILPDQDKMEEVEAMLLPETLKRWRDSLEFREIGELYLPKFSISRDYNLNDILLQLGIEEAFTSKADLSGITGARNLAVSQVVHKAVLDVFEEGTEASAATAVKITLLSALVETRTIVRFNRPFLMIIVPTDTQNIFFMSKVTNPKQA
Assay: serpin inhibition of the protease
Known kapp of a selection of binders
endpoint: kapp

[[record]]
binder = "chymase C22S/K40L/F41R/L99N/F173Y/S218L/A226R (enzyme) IIGGTESKPHSRPYMAYLEIVTSNGPSLRCGGFLIRRNFVLTAAHCAGRSITVTLGAHNITEEEDTWQKLEVIKQFRHPKYNTSTNHHDIMLLKLKEKASLTLAVGTLPFPSQFNFVPPGRMCRVAGWGRTGVLKPGSDTLQEVKLRLMDPQACSHYRDFDHNLQLCVGNPRKTKSAFKGDSGGPLLCAGVAQGIVSYGRLDAKPPRVFTRISHYRPWINQILQAN"
meas_value = "190 M⁻¹ s⁻¹"

[[record]]
binder = "chymase C22S/K40L/F41R/L99N/F173Y/D175N/S218L/A226R (enzyme, also called MS No. 15) IIGGTESKPHSRPYMAYLEIVTSNGPSLRCGGFLIRRNFVLTAAHCAGRSITVTLGAHNITEEEDTWQKLEVIKQFRHPKYNTSTNHHDIMLLKLKEKASLTLAVGTLPFPSQFNFVPPGRMCRVAGWGRTGVLKPGSDTLQEVKLRLMDPQACSHYRNFDHNLQLCVGNPRKTKSAFKGDSGGPLLCAGVAQGIVSYGRLDAKPPRVFTRISHYRPWINQILQAN"
meas_value = "37 M⁻¹ s⁻¹"

[[record]]
binder = "chymase C22S/K40L/F41K/L99H/G151S/F173Y/S218L/A226R (enzyme) IIGGTESKPHSRPYMAYLEIVTSNGPSLKCGGFLIRRNFVLTAAHCAGRSITVTLGAHNITEEEDTWQKLEVIKQFRHPKYNTSTHHHDIMLLKLKEKASLTLAVGTLPFPSQFNFVPPGRMCRVAGWGRTGVLKPSSDTLQEVKLRLMDPQACSHYRDFDHNLQLCVGNPRKTKSAFKGDSGGPLLCAGVAQGIVSYGRLDAKPPRVFTRISHYRPWINQILQAN"
meas_value = "139 M⁻¹ s⁻¹"

[[record]]
binder = "chymase C22S/K40L/F41K/L99N/F173Y/D175N/S218L/A226R (enzyme, also called MS No. 8) IIGGTESKPHSRPYMAYLEIVTSNGPSLKCGGFLIRRNFVLTAAHCAGRSITVTLGAHNITEEEDTWQKLEVIKQFRHPKYNTSTNHHDIMLLKLKEKASLTLAVGTLPFPSQFNFVPPGRMCRVAGWGRTGVLKPGSDTLQEVKLRLMDPQACSHYRNFDHNLQLCVGNPRKTKSAFKGDSGGPLLCAGVAQGIVSYGRLDAKPPRVFTRISHYRPWINQILQAN"
meas_value = "28 M⁻¹ s⁻¹"

